- system name: free fatty acid receptor 1 (FFA1, GPR40) (Homo sapiens, UniProt O14842)
- Sequence (O14842 whole entry): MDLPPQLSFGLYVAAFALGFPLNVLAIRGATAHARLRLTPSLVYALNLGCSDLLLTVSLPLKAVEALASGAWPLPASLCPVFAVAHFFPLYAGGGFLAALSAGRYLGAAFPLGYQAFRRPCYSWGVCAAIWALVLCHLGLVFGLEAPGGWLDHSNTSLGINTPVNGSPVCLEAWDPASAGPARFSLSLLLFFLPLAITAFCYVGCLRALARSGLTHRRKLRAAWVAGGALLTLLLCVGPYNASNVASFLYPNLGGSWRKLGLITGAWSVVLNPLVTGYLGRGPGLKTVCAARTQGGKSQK
- assay info: calcium flux (FLIPR) agonist assay in CHO cells stably expressing human FFA1
assay readout: EC50 (µM)

input_smiles=O=C(O)CCc1nnc(C(=O)Nc2cccc(-c3ccc(Cl)cc3)c2)s1 units_label=µM value_observed=1.32
input_smiles=COc1cccc(-c2ccc(NC(=O)c3nnc(CCC(=O)O)s3)cc2)c1 units_label=µM value_observed=1.35

a: O=C(O)CCc1nnc(C(=O)Nc2ccc(-c3cccc(C(F)(F)F)c3)cc2)s1
b: O=C(O)CCc1nnc(C(=O)Nc2cccc(-c3ccc(OC(F)(F)F)cc3)c2)s1
Return label of the item with the larger EC50. Candidates: a , b . # answer = label of selected item
a
(a: 1.86 µM, b: 1.25 µM)
